Kindly supply the reported pIC50 values for the records listed here.
System: human pancreatic cancer strain KP4
Type: cell-based
One number for each entry, as −log10 of the molar value.

Give pIC50 for all compounds that follow.
1. CCO[C@@H]1C[C@H]2C(=O)NC3(CCCC3)C(=O)N(C)[C@@H](C3CCCC3)C(=O)N(C)[C@H](C(=O)N(C)C)CC(=O)N(C)[C@@H](CC(C)C)C(=O)N[C@@H]([C@@H](C)CC)C(=O)N(C)CC(=O)N(C)[C@H]3C/C(F)=C\CCN(C3=O)[C@@H](Cc3ccc(C(F)(F)F)cc3)C(=O)N(C)CC(=O)N[C@@H](CCc3cc(F)c(C(F)(F)F)c(F)c3)C(=O)N2C1
2. CCC[C@H]1C(=O)N[C@@H]([C@@H](C)CC)C(=O)N2CCC[C@H]2C(=O)N(C)[C@H]2C/C=C\CCN(C2=O)[C@@H](Cc2ccc(C(F)(F)F)cc2)C(=O)N(C)CC(=O)N[C@@H](CCc2ccc(C(F)(F)F)c(OC)c2)C(=O)N2C[C@H](OCC)C[C@H]2C(=O)OC2(CCC2)C(=O)N(C)[C@@H](C2CCCC2)C(=O)N(C)[C@H](C(=O)N(C)C)CC(=O)N1C
3. C#CC[C@H]1C(=O)N[C@@H]([C@@H](C)CC)C(=O)N2CCC[C@H]2C(=O)N(C)[C@H]2C/C=C\CCN(C2=O)[C@@H](Cc2ccc(C)cc2)C(=O)N(C)CC(=O)N[C@@H](CCc2ccc(C(F)(F)F)c(OC)c2)C(=O)N2C[C@H](OCC)C[C@H]2C(=O)N(C)C2(CCC2)C(=O)N(C)[C@@H](C2CCCC2)C(=O)N(C)[C@H](C(=O)N(C)C)CC(=O)N1C

**Result**
[7.77, 7.73, 8.03]

* * *

Target: GDP-bound KRAS wild-type protein (Homo sapiens, UniProt P01116)
Sequence (P01116 1-188 isoform P01116-2): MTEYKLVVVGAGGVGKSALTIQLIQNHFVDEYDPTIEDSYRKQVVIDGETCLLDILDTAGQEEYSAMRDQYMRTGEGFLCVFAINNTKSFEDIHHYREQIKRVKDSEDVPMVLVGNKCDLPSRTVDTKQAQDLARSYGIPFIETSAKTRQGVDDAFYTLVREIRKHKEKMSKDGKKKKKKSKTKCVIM
Assay: Binding to KRAS by surface plasmon resonance (SPR), dissociation constant KD
Conditions: Single Cycle Kinetics
Kindly supply the reported Kd values for the records listed here.
Answers are plain numbers, in nM.

// below: answered compounds
CCO[C@@H]1C[C@H]2C(=O)NC3(CCCC3)C(=O)N(C)[C@@H](C3CCCC3)C(=O)N(C)[C@H](C(=O)N(C)C)CC(=O)N(C)[C@@H]([C@@H](C)OC)C(=O)N[C@@H]([C@@H](C)CC)C(=O)N(C3CC3)CC(=O)N(C)[C@H]3C/C=C\CCN(C3=O)[C@@H](Cc3ccc(C(F)(F)F)cc3)C(=O)N(C)CC(=O)N[C@@H](CCc3cc(F)c(C(F)(F)F)c(F)c3)C(=O)N2C1 [PP3476]	0.37
CCC[C@H]1C(=O)N[C@@H]([C@@H](C)CC)C(=O)N2CCC[C@H]2C(=O)N(C)[C@H]2C/C=C\CCN(C2=O)[C@@H](Cc2ccc(C(F)(F)F)cc2)C(=O)N(C)CC(=O)N[C@@H](CCc2ccc(C(F)(F)F)c(Cl)c2)C(=O)N2CC[C@H](OC)[C@H]2C(=O)N(C)C2(CCC2)C(=O)N(C)[C@@H](C2CCCC2)C(=O)N(C)[C@H](C(=O)N(C)C)CC(=O)N1C [PP3289]	0.26

Lab note: next compound to report on.
**Query** Find the measured Kd: item C=CCCC[C@H]1C(=O)N[C@@H]([C@@H](C)CC)C(=O)N(C)CC(=O)N(C)[C@H]2CCCCCN(C2=O)[C@@H](Cc2ccc(C(F)(F)F)cc2)C(=O)N(C)CC(=O)N[C@@H](CCc2cc(F)c(C(F)(F)F)c(F)c2)C(=O)N2C[C@H](OCC)C[C@H]2C(=O)N[C@](C)(CC=C)C(=O)N(C)[C@@H](C2CCCC2)C(=O)N(C)[C@H](C(=O)N2CCOCC2)CC(=O)N1C [PP0880] , target or system GDP-bound KRAS wild-type protein (Homo sapiens, UniProt P01116).
**Result** 4.5

* * *

Biological target: GDP-bound KRAS wild-type protein (Homo sapiens, UniProt P01116)
Assay: Binding to KRAS by surface plasmon resonance (SPR), dissociation constant KD
Details: 1:1 binding model
*1 amine or outer side, *2 acyl side, *3 side chain or, on linkers, in order; H or OH if unused. Where a SMILES comes first, the peptide text is derived from it. Bridges are numbered along the chain shown (N, C = ends). [ ]: non-standard residue; d: D form. The star is where a group is joined. hPhe(3-Cl-4-CF3) = N[C@@H](CCc1ccc(C(F)(F)F)c(Cl)c1)C(=O)O; X1 = CCCCN([C@@H](Cc1ccc(C)cc1)C(=O)[*:2])[*:1]; NMeGly(cPent) = CN[C@H](C(=O)O)C1CCCC1; NMeD = CN[C@@H](CC(=O)O)C(=O)O; NMeL = CN[C@@H](CC(C)C)C(=O)O; Morpholide = C1CN(*)CCO1; NMeA = CN[C@@H](C)C(=O)O; Ac5c = NC1(C(=O)O)CCCC1; Aze = O=C(O)[C@@H]1CCN1; Sar = CNCC(=O)O
Kindly supply the reported Kd values for the records listed here.
Give bare numbers, in nM.

CCC[C@H]1C(=O)N[C@@H](CC(C)C)C(=O)N(C2CC2)CC(=O)N(C)[C@H]2C/C=C\CCN(C2=O)[C@@H](Cc2ccc(C)cc2)C(=O)N(C)CC(=O)N[C@@H](CCc2cc(F)c(C(F)(F)F)c(F)c2)C(=O)N2C[C@H](OCC)C[C@H]2C(=O)NC2(CCC2)C(=O)N(C)[C@@H](C2CCCC2)C(=O)N(C)[C@H](C(=O)N(C)C)CC(=O)N1C	4.1
CCCCN1C(=O)[C@@H]2CCN2C(=O)[C@H](C)N(C)C(=O)[C@H]([C@@H](C)CC)NC(=O)[C@H](CC(C)C)N(C)C(=O)C[C@@H](C(=O)N2CCOCC2)N(C)C(=O)[C@H](C2CCCC2)N(C)C(=O)C2(CCCC2)NC(=O)[C@@H]2CCCN2C(=O)[C@H](CCc2ccc(C(F)(F)F)c(Cl)c2)NC(=O)CN(C)C(=O)[C@@H]1Cc1ccc(C)cc1 [PP0055] ([NMeL]I[NMeA][Aze][X1][Sar][hPhe(3-Cl-4-CF3)]P[Ac5c][NMeGly(cPent)][NMeD]-Morpholide; lactam N-11)	0.27
CCOC[C@H]1C(=O)N[C@@H]([C@@H](C)CC)C(=O)N(C)CC(=O)N(C)[C@H]2C/C=C\CCN(C2=O)[C@@H](Cc2ccc(C(F)(F)F)cc2)C(=O)N(C)CC(=O)N[C@@H](CCc2ccc(C(F)(F)F)c(OC)c2)C(=O)N2C[C@@H](C)C[C@H]2C(=O)N(C)C2(CCC2)C(=O)N(C)[C@@H](C2CCCC2)C(=O)N(C)[C@H](C(=O)N(C)C)CC(=O)N1C	0.02
CC[C@H](C)[C@@H]1NC(=O)[C@H](COC)N(C)C(=O)C[C@@H](C(=O)N(C)C)N(C)C(=O)[C@H](C2CCCC2)N(C)C(=O)C2(CC(C)(C)C2)NC(=O)[C@@H]2C[C@@H](OC(C)C)CN2C(=O)[C@H](CCc2ccc(Cl)c(Cl)c2)NC(=O)CN(C)C(=O)[C@H](CC2CCCCC2)N2CC/C=C\C[C@@H](C2=O)N(C)C(=O)CN(C2CC2)C1=O	2.6

Give Kd for all compounds that follow.
1. CCC[C@H]1C(=O)N[C@@H]([C@@H](C)CC)C(=O)N(C)CC(=O)N(C)[C@H]2C/C=C\CCN(C2=O)[C@@H](Cc2ccc(C(F)(F)F)cc2)C(=O)N(C)CC(=O)N[C@@H](CCc2ccc3c(C)c(C)n(C)c3c2)C(=O)N2C[C@H](OCC)C[C@H]2C(=O)NC2(CC(C)(C)C2)C(=O)N(C)[C@@H](C(CC)CC)C(=O)N(C)[C@H](C(=O)N(C)C)CC(=O)N1C
2. CCO[C@@H]1C[C@H]2C(=O)NC3(CC(C)(C)C3)C(=O)N(C)[C@@H](C3CCCC3)C(=O)N(C)[C@H](C(=O)N3CCCCC3)CC(=O)N(C)[C@@H](COC)C(=O)N[C@@H]([C@@H](C)CC)C(=O)N(C)CC(=O)N(C)[C@H]3C/C=C\CCN(C3=O)[C@@H](Cc3ccc(C(F)(F)F)cc3)C(=O)N(C)CC(=O)N[C@@H](CCc3ccc(Cl)c(Cl)c3)C(=O)N2C1

**Result**
1: 3.8; 2: 0.48

* * *

Kindly supply the reported Kd values for the records listed here.
Target: GDP-bound KRAS wild-type protein (Homo sapiens)
Test: Binding to KRAS by surface plasmon resonance (SPR), dissociation constant KD
Conditions: Single Cycle Kinetics, 1:1 binding model
Experimental: Surface plasmon resonance was used to analyze the binding affinity of compounds for KRAS, NRAS, and HRAS. […] The resulting sensorgram was subjected to curve fitting based on a 1:1 binding model on Biacore Insight Evaluation Software or T200 Evaluation Software, and thereby the dissociation constant KD of each compound with respect to KRAS, NRAS, and HRAS was determined. […]
Where a SMILES comes first, the peptide text is derived from it. Bridges are numbered along the chain shown (N, C = ends). [ ]: non-standard residue; d: D form. hPhe(3-Cl-4-CF3) = N[C@@H](CCc1ccc(C(F)(F)F)c(Cl)c1)C(=O)O; NPrPhe(4-CF3) = CCCN[C@@H](Cc1ccc(C(F)(F)F)cc1)C(=O)O; NMeGly(cPent) = CN[C@H](C(=O)O)C1CCCC1; NMeD = CN[C@@H](CC(=O)O)C(=O)O; NMeL = CN[C@@H](CC(C)C)C(=O)O; Ac5c = NC1(C(=O)O)CCCC1; Aze = O=C(O)[C@@H]1CCN1; Sar = CNCC(=O)O
Give bare numbers, in nM.

CC[C@H](C)[C@@H]1NC(=O)[C@H](CC(C)C)N(C)C(=O)C[C@@H](C(=O)N2CCOCC2)N(C)C(=O)[C@H](C2CCCC2)N(C)C(=O)C2(CCCC2)NC(=O)[C@@H]2CCCN2C(=O)[C@H](CCc2cc(F)c(C(F)(F)F)c(F)c2)NC(=O)CN(C)C(=O)[C@H](Cc2ccc(C(F)(F)F)cc2)N2CCCC[C@@H](C2=O)N(C)C(=O)[C@H](CC)N(C)C1=O	38
CCO[C@@H]1C[C@H]2C(=O)NC3(CCC3)C(=O)N(C)[C@@H](C3CCCC3)C(=O)N(C)[C@H](C(=O)N(C)C)CC(=O)N(C)[C@@H](CC(C)C)C(=O)N[C@@H]([C@@H](C)CC)C(=O)N(C)CC(=O)N(C)[C@H]3C/C=C\CCN(C3=O)[C@@H](Cc3ccc(C(F)(F)F)cc3)C(=O)N(C)CC(=O)N[C@@H](CCc3ccc(Cl)c(Cl)c3)C(=O)N2C1	0.18
CCO[C@@H]1C[C@H]2C(=O)NC3(CCC3)C(=O)N(C)[C@@H](C3CCCC3)C(=O)N(C)[C@H](C(=O)N(C)C)CC(=O)N(C)[C@@H](CC(C)C)C(=O)N[C@@H]([C@@H](C)CC)C(=O)N(C)CC(=O)N(C)[C@H]3C/C=C\CCN(C3=O)[C@@H](CC3CCCCC3)C(=O)N(C)CC(=O)N[C@@H](CCc3cc(F)c(C(F)(F)F)c(F)c3)C(=O)N2C1	0.12

Give Kd for all compounds that follow.
1. CCO[C@@H]1C[C@H]2C(=O)NC3(CCC3)C(=O)N(C)[C@@H](C3CCCC3)C(=O)N(C)[C@H](C(=O)N(C)CC)CC(=O)N(C)[C@@H](CC3CCC3)C(=O)N[C@@H]([C@@H](C)CC)C(=O)N(C)CC(=O)N(C)[C@H]3C/C=C\CCN(C3=O)[C@@H](Cc3ccc(C(F)(F)F)cc3)C(=O)N(C)CC(=O)N[C@@H](CCc3cc(F)c(C(F)(F)F)c(F)c3)C(=O)N2C1
2. CCCN1C(=O)CN(C)C(=O)[C@@H]2CCN2C(=O)[C@H]([C@@H](C)CC)NC(=O)[C@H](CC(C)C)N(C)C(=O)C[C@@H](C(=O)N(C)C)N(C)C(=O)[C@H](C2CCCC2)N(C)C(=O)C2(CCCC2)NC(=O)[C@@H]2CCCN2C(=O)[C@H](CCc2ccc(C(F)(F)F)c(Cl)c2)NC(=O)CN(C)C(=O)[C@@H]1Cc1ccc(C(F)(F)F)cc1 [PP0429] ([NMeL]I[Aze][Sar][NPrPhe(4-CF3)][Sar][hPhe(3-Cl-4-CF3)]P[Ac5c][NMeGly(cPent)][NMeD]-NMe2; lactam N-11)

**Result**
[0.081, 0.39]
